Protein target, amino acids: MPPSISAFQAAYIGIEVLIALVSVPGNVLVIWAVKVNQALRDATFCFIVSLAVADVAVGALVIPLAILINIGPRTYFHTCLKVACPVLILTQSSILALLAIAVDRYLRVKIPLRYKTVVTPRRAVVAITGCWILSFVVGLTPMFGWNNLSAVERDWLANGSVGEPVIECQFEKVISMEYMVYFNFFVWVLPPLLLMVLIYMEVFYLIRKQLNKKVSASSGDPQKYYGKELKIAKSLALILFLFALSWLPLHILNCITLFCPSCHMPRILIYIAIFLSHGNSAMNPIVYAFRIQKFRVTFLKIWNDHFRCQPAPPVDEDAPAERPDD
Readout name: Ki (nM)
Give just the number in nM; leave the unit off.

Looking up CC(Cc1ccccc1)Nc1ncnc2c1ncn2C1OC(CO)C(O)C1O (stereo unspecified) , I found its Ki recorded as 18.2

====

# System tested: Adenosine receptor A2b (Bos taurus, UniProt Q1LZD0)
# Sequence (Q1LZD0 whole entry): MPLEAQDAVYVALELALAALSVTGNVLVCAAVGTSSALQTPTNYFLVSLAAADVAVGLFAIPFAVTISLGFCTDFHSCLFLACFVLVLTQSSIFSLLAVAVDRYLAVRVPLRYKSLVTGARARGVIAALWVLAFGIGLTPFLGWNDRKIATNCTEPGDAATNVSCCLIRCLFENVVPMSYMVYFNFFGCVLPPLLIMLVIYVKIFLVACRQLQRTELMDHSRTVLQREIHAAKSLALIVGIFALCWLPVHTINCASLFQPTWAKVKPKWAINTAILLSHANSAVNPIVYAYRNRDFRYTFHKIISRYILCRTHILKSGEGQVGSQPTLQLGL
Readout name: pKi
Expect pKi as a plain number equal to -log10 of the molar concentration.

The reported pKi of the compound Nc1nc(Cl)nc2c1ncn2[C@@H]1O[C@H](CO)[C@@H](O)[C@H]1O [2-CI Adenosine] was 5.16

====

Readout name: Ki
Note: a bare number is incomplete; add the unit.

Let me check: CC(Cc1ccccc1)Nc1ncnc2c1ncn2C1OC(CO)C(O)C1O (stereo unspecified) [R-N6-(2-phenylisopropyl) adenosine] , system Adenosine receptor A1 (Cavia porcellus), measured Ki is 1.95 µM
